Entry source: the RNAGym collection of RNA variant scans (doi:10.7554/elife.80360)

B1: CPEB3 Ribozyme (parent)
chain: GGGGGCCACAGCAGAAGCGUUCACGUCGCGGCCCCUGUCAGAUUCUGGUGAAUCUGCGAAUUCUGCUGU

Variants of: B1
run description: self-cleavage, relative activity (ratio to wild type); higher = more cleavage; co-transcriptional
measurement label: self-cleavage

mutations	measurement label	recorded value
G11U G41A	self-cleavage	0.217
U61C G68C	self-cleavage	0.978
C24U U67C	self-cleavage	0.833
G31U U46A	self-cleavage	0.785
C7G C24G	self-cleavage	0.0776
A40U U44G	self-cleavage	0.623
C63A G68U	self-cleavage	0.878
A23G G41U	self-cleavage	0.798
G37A C54A	self-cleavage	0.235
C18A A52U	self-cleavage	0.258
G47C U64G	self-cleavage	0.938
C54U C57A	self-cleavage	0.413
C7U G19U	self-cleavage	0.247
C32A G37C	self-cleavage	0.336
G48U C54G	self-cleavage	1.03
A8G A40C	self-cleavage	0.103
C12A C22A	self-cleavage	0.144
U44A U46A	self-cleavage	0.99
C35A A59U	self-cleavage	0.227
U21A C29U	self-cleavage	0.413
C22A U46C	self-cleavage	0.186
A13C C18A	self-cleavage	0.181
G3C C6G	self-cleavage	0.0449
C39G U62G	self-cleavage	0.592
G5A A23U	self-cleavage	0.931
G14A A40C	self-cleavage	0.234
G37U U49G	self-cleavage	0.327
A13G G30A	self-cleavage	0.856
G2U U46C	self-cleavage	0.0853
G30A C54A	self-cleavage	0.431
G2C A10G	self-cleavage	0.0728
G14C G48C	self-cleavage	0.677
C33A G47C	self-cleavage	0.946
G5A A42U	self-cleavage	0.71
G19C A40U	self-cleavage	0.0999
G1C A8C	self-cleavage	0.221
G3C C66A	self-cleavage	0.0406
A15G C57A	self-cleavage	0.45
G25A A42G	self-cleavage	0.203
